# Assay Target: PPARδ-RXRα heterodimer (Homo sapiens, UniProt Q03181)
# Sequence (Q03181 whole entry): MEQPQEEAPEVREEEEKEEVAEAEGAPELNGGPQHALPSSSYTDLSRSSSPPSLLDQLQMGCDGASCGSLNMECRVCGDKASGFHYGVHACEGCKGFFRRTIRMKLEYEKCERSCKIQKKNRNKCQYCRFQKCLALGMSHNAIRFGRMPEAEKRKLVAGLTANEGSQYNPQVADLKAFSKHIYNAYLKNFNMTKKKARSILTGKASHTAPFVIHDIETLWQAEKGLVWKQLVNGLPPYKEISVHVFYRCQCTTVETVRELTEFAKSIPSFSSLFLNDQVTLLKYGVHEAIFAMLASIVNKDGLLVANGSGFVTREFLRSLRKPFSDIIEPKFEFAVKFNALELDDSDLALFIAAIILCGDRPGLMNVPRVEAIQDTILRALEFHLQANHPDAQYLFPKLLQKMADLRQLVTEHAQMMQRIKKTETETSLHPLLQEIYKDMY
# Sequence (P19793 whole entry partner): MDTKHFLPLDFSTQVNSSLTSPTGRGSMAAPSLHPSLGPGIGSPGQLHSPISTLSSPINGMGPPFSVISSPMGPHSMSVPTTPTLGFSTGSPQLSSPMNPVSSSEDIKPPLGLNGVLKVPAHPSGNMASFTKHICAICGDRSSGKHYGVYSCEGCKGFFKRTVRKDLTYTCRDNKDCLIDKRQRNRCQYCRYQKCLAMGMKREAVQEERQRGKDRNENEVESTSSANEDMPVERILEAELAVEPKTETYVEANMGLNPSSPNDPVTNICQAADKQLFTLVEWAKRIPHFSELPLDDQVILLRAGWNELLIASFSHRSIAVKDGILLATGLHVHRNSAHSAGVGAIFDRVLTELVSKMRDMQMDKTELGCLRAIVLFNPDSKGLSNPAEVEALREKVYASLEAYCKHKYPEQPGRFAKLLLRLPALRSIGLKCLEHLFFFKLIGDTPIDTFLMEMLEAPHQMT
# Assay Name: PPARδ-RXRα heterodimer ligand activity, luciferase reporter in COS-1 transformant (Test Example 4)
# Condition Description: COS-1 transformant (hPPARδ, hRXRα, reporter), 36-48 hours, concentration for 50% of the maximum fold induction
Hi all, reminder that labels come from EC50, split as bottom end: < 6 nM; midrange: ≥ 6 nM and < 10 nM; top end: ≥ 10 nM

Lab note: sort CCOc1nn(-c2ccc(C(F)(F)F)cn2)cc1CCCCOc1ccccc1CC(=O)O [Example 137] into the matching EC50 band.
midrange

Lab note: sort CC(C)c1nn(-c2ccc(C(F)(F)F)cn2)cc1CCCCOc1cccc(CC(=O)O)c1 [Example 51] into the matching EC50 band.
bottom end

Lab note: sort CCCc1nn(-c2ccc(C(F)(F)F)cn2)cc1CCCOc1ccc(CC(=O)O)c(C)c1 [Example 94] into the matching EC50 band.
bottom end

Lab note: sort COc1cccc(CC(=O)O)c1OCCCc1cn(-c2ccc(Cl)cn2)nc1C(C)C [Example 311] into the matching EC50 band.
top end

Lab note: sort Cc1nn(-c2ccc(C(F)(F)F)cn2)cc1COc1ccc(OC(C)(C)C(=O)O)cc1 [Example 34] into the matching EC50 band.
midrange

Lab note: sort CCCOc1cc(OCCCc2cn(-c3ccc(C(F)(F)F)cn3)nc2OCC)ccc1CCC(=O)O [Example 117] into the matching EC50 band.
bottom end

Lab note: sort CCCc1nn(-c2ccc(C(F)(F)F)cn2)cc1CCCOc1ccc(CC(=O)O)cc1 [Example 46] into the matching EC50 band.
midrange

Lab note: sort CCOc1cc(OCCCc2cn(-c3ccc(C(F)(F)F)cn3)nc2OCC)ccc1CCC(=O)O [Example 35] into the matching EC50 band.
bottom end

Lab note: sort CCC(CC)c1nn(-c2ccc(C(F)(F)F)cn2)cc1CCCOc1c(CC(=O)O)cccc1OC [Example 212] into the matching EC50 band.
top end

Lab note: sort Cc1cccc(CC(=O)O)c1OCCCc1cn(-c2ccc(C(F)(F)F)nn2)nc1C(C)(C)C [Example 367] into the matching EC50 band.
top end

Lab note: sort CCOc1cc(OCCCc2cn(-c3ccc(C(F)(F)F)cn3)nc2-c2ccccc2)ccc1CCC(=O)O [Example 99] into the matching EC50 band.
bottom end

Lab note: sort COc1cccc(CC(=O)O)c1OCCCc1cn(-c2ccc(C(F)(F)F)nn2)nc1C(C)C [Example 274] into the matching EC50 band.
top end

Lab note: sort CCCc1nn(-c2ccc(C(F)(F)F)cn2)cc1CCCCOc1cccc(CC(=O)O)c1 [Example 59] into the matching EC50 band.
midrange

Lab note: sort CCC(CC)c1nn(-c2ccc(C(F)(F)F)cn2)cc1CCCOc1c(C)cccc1CC(=O)O [Example 213] into the matching EC50 band.
midrange

###

Give measured melting point for each item. Keep answers brief.

What does the record list as melting point for CCOc1nn(-c2ccc(C(F)(F)F)cn2)cc1CCOc1ccc(CCC(=O)O)c(C)c1 ?
117 to 119 °C

What does the record list as melting point for CCCc1nn(-c2ccc(C(F)(F)F)cn2)cc1CCCOc1c(C#N)cccc1CC(=O)O ?
146 to 147 °C

What does the record list as melting point for CC(C)c1nn(-c2ccc(C(F)(F)F)cn2)cc1CCCCOc1ccc(CC(=O)O)cc1 ?
130 to 131 °C

What does the record list as melting point for CCOc1nn(-c2ccc(C(F)(F)F)cn2)cc1CCCOc1ccc(OC(C)(C)C(=O)O)cc1 ?
91 to 92 °C

What does the record list as melting point for CCOc1nn(-c2ccc(C(F)(F)F)cn2)cc1CCCCOc1cc(CCC(=O)O)n(-c2ccccc2)n1 ?
138 to 139 °C

What does the record list as melting point for CCOc1nn(-c2ccc(C(F)(F)F)cn2)cc1CCCOc1cc(CC(=O)O)n(C)n1 ?
151 to 152 °C

What does the record list as melting point for CCCc1nn(-c2ccc(C(F)(F)F)cn2)cc1CCCOc1ccc(CC(=O)O)c(C)c1 ?
134 to 135 °C

What does the record list as melting point for CCC(C)c1nn(-c2ccc(C(F)(F)F)cn2)cc1CCCOc1c(C)cccc1CC(=O)O (centres unmarked) ?
134 to 135 °C
